- Tested on: OSC-20 (Oral Cavity Carcinoma)
- PROTOCOL_NOTES: Bliss excess, mean over the matrix (fraction); higher = more synergy
Each entry below lists one item and its recorded Bliss excess value.
MEASUREMENT_KIND: Bliss excess

{"MOLECULE": "NC1(C(=O)N[C@@H](CCO)c2ccc(Cl)cc2)CCN(c2ncnc3[nH]ccc23)CC1 [Capivasertib] + C[C@@H]1COCCN1C2=NC(=NC(=C2)C3(CC3)[S@](=N)(=O)C)C4=C5C=CNC5=NC=C4 [AZD6738] (first compound max 10 µM, 7x7, partner max 10 µM)", "ASSAYED_TARGET": "OSC-20 (Oral Cavity Carcinoma)", "RESULT_NUMBER": -0.0194}
{"MOLECULE": "C=CCn1c(=O)c2cnc(Nc3ccc(N4CCN(C)CC4)cc3)nc2n1-c1cccc(C(C)(C)O)n1 [AZD1775] + C1CN(CCC1(C(=O)N[C@@H](CCO)C2=CC=C(C=C2)Cl)N)C3=NC=NC4=C3C=CN4 [Capivasertib] (first compound max 3 µM, partner max 3 µM)", "ASSAYED_TARGET": "OSC-20 (Oral Cavity Carcinoma)", "RESULT_NUMBER": -0.0196}
{"MOLECULE": "CN(CCO)CC[C@H](CSc1ccccc1)Nc1ccc(S(=O)(=O)NC(=O)c2ccc(N3CCC([C@@H](O)c4ccccc4-c4ccc(Cl)cc4)CC3)cc2)cc1S(=O)(=O)C(F)(F)F [AZD4320] + C=CCn1c(=O)c2cnc(Nc3ccc(N4CCN(C)CC4)cc3)nc2n1-c1cccc(C(C)(C)O)n1 [AZD1775] (first compound max 1 µM, partner max 1 µM)", "ASSAYED_TARGET": "OSC-20 (Oral Cavity Carcinoma)", "RESULT_NUMBER": -0.0933}

* * *

- Tested on: HGC-27 (Gastric Carcinoma)
- PROTOCOL_NOTES: Bliss excess, mean over the matrix (fraction); higher = more synergy
MEASUREMENT_KIND: Bliss excess

{"COMPOUND": "CN(CCO)CC[C@H](CSc1ccccc1)Nc1ccc(S(=O)(=O)NC(=O)c2ccc(N3CCC([C@@H](O)c4ccccc4-c4ccc(Cl)cc4)CC3)cc2)cc1S(=O)(=O)C(F)(F)F [AZD4320] + C1CN(CCC1(C(=O)N[C@@H](CCO)C2=CC=C(C=C2)Cl)N)C3=NC=NC4=C3C=CN4 [Capivasertib] (first compound max 1 µM, 7x7, partner max 3 µM)", "RESULT_NUMBER": -0.0252}
{"COMPOUND": "NC1(C(=O)N[C@@H](CCO)c2ccc(Cl)cc2)CCN(c2ncnc3[nH]ccc23)CC1 [Capivasertib] + COc1nnc2ccc(N3CCC(c4ccc(OCCN5CCN(C)C(=O)[C@H]5C)cc4)CC3)nn12 [AZD5153] (first compound max 10 µM, 7x7, partner max 1 µM)", "RESULT_NUMBER": 0.0097}
{"COMPOUND": "COc1cc2ncnc(Nc3ccc(F)c(Cl)c3)c2cc1OCCCN1CCOCC1 [Gefitinib] + CC(C)n1c(=O)n(C)c2cnc3cc(F)c(-c4ccc(OCCCN5CCCCC5)nc4)cc3c21 [AZD1390] (first compound max 10 µM, 7x7, partner max 0.3 µM)", "RESULT_NUMBER": -0.0261}
{"COMPOUND": "Cn1cnc2c(F)c(Nc3ccc(Br)cc3Cl)c(C(=O)NOCCO)cc21 [Selumetinib] + CC(C)n1c(=O)n(C)c2cnc3cc(F)c(-c4ccc(OCCCN5CCCCC5)nc4)cc3c21 [AZD1390] (first compound max 10 µM, 7x7, partner max 0.3 µM)", "RESULT_NUMBER": -0.0129}

* * *

- System: EFM-19 (Breast Carcinoma)
- PROTOCOL_NOTES: Bliss excess, mean over the matrix (fraction); higher = more synergy
Each entry below lists one item and its recorded Bliss excess value.

{"MOLECULE": "Cc1cc2ncnn2cc1Nc1ncc2c(n1)n(C1CCOCC1)c(=O)n2C [AZD7648] + CCN(CCO)CCCOc1ccc2c(Nc3cc(CC(=O)Nc4cccc(F)c4)[nH]n3)ncnc2c1 [AZD2811] (first compound max 10 µM, 7x7, partner max 1 µM)", "Bliss excess": 0.116}
{"MOLECULE": "Cc1c2c(nn1C)CSCc1cc(n(C)n1)CSc1cc(c3ccccc3c1)OCCCc1c(C(=O)O)n(C)c3c-2c(Cl)ccc13 [AZD5991] + CCN(CCO)CCCOc1ccc2c(Nc3cc(CC(=O)Nc4cccc(F)c4)[nH]n3)ncnc2c1 [AZD2811] (first compound max 1 µM, 7x7, partner max 1 µM)", "Bliss excess": 0.122}
{"MOLECULE": "CC1(C)CCC(CN2CCN(c3ccc(C(=O)NS(=O)(=O)c4ccc(NCC5CCOCC5)c([N+](=O)[O-])c4)c(Oc4cnc5[nH]ccc5c4)c3)CC2)=C(c2ccc(Cl)cc2)C1 [Venetoclax] + C[C@@H]1COCCN1C2=NC(=NC(=C2)C3(CC3)[S@](=N)(=O)C)C4=C5C=CNC5=NC=C4 [AZD6738] (first compound max 1 µM, 7x7, partner max 10 µM)", "Bliss excess": -0.0814}

* * *

Each entry below lists one item and its recorded combination Emax value.
- System: AMO-1 (Plasma Cell Myeloma)
- PROTOCOL_NOTES: combination Emax (second highest fraction inhibited in the dose matrix, 72 h); higher = more inhibition; extreme values may be limits of the assay
MEASUREMENT_KIND: combination Emax

{"MOLECULE": "NC1(C(=O)N[C@@H](CCO)c2ccc(Cl)cc2)CCN(c2ncnc3[nH]ccc23)CC1 [Capivasertib] + Cn1cnc2c(F)c(Nc3ccc(Br)cc3Cl)c(C(=O)NOCCO)cc21 [Selumetinib] (first compound max 10 µM, 7x7, partner max 10 µM)", "ASSAYED_TARGET": "AMO-1 (Plasma Cell Myeloma)", "MEASUREMENT_KIND": "combination Emax", "RESULT_NUMBER": 0.801}
{"MOLECULE": "NC1(C(=O)N[C@@H](CCO)c2ccc(Cl)cc2)CCN(c2ncnc3[nH]ccc23)CC1 [Capivasertib] + CCN(CCO)CCCOc1ccc2c(Nc3cc(CC(=O)Nc4cccc(F)c4)[nH]n3)ncnc2c1 [AZD2811] (first compound max 10 µM, 7x7, partner max 1 µM)", "ASSAYED_TARGET": "AMO-1 (Plasma Cell Myeloma)", "MEASUREMENT_KIND": "combination Emax", "RESULT_NUMBER": 0.769}
{"MOLECULE": "C[C@@H](Oc1cc(-c2cnn(C3CCNCC3)c2)cnc1N)c1c(Cl)ccc(F)c1Cl [Crizotinib] + Cn1cnc2c(F)c(Nc3ccc(Br)cc3Cl)c(C(=O)NOCCO)cc21 [Selumetinib] (first compound max 10 µM, 7x7, partner max 10 µM)", "ASSAYED_TARGET": "AMO-1 (Plasma Cell Myeloma)", "MEASUREMENT_KIND": "combination Emax", "RESULT_NUMBER": 0.999}
{"MOLECULE": "C=CCn1c(=O)c2cnc(Nc3ccc(N4CCN(C)CC4)cc3)nc2n1-c1cccc(C(C)(C)O)n1 [AZD1775] + C1CN(CCC1(C(=O)N[C@@H](CCO)C2=CC=C(C=C2)Cl)N)C3=NC=NC4=C3C=CN4 [Capivasertib] (first compound max 3 µM, partner max 3 µM)", "ASSAYED_TARGET": "AMO-1 (Plasma Cell Myeloma)", "MEASUREMENT_KIND": "combination Emax", "RESULT_NUMBER": 0.945}

* * *

- Test system: C-4-I (Cervical Carcinoma)
- PROTOCOL_NOTES: combination Emax (second highest fraction inhibited in the dose matrix, 72 h); higher = more inhibition; extreme values may be limits of the assay
MEASUREMENT_KIND: combination Emax

{"COMPOUND": "C=CCn1c(=O)c2cnc(Nc3ccc(N4CCN(C)CC4)cc3)nc2n1-c1cccc(C(C)(C)O)n1 [AZD1775] + C1CN(CCC1(C(=O)N[C@@H](CCO)C2=CC=C(C=C2)Cl)N)C3=NC=NC4=C3C=CN4 [Capivasertib] (first compound max 3 µM, partner max 3 µM)", "RESULT_NUMBER": 0.97}
{"COMPOUND": "Cc1cc2ncnn2cc1Nc1ncc2c(n1)n(C1CCOCC1)c(=O)n2C [AZD7648] + CN(C)CCCOc1ccc(-c2ccc3ncc4c(c3c2)n(C2CCOCC2)c(=O)n4C)cn1 [AZD0156] (first compound max 10 µM, 7x7, partner max 1 µM)", "RESULT_NUMBER": 0.211}
{"COMPOUND": "C[C@@H](c1ccc2nccn2c1)n1nnc2ncc(-c3cnn(C)c3)nc21 [Savolitinib] + CN(CC[C@H](CSC1=CC=CC=C1)NC2=C(C=C(C=C2)S(=O)(=O)NC(=O)C3=CC=C(C=C3)N4CCC(CC4)[C@H](C5=CC=CC=C5C6=CC=C(C=C6)Cl)O)S(=O)(=O)C(F)(F)F)CCO [AZD4320] (first compound max 1 µM, 7x7, partner max 1 µM)", "RESULT_NUMBER": 0.234}
{"COMPOUND": "Cc1c2c(nn1C)CSCc1cc(n(C)n1)CSc1cc(c3ccccc3c1)OCCCc1c(C(=O)O)n(C)c3c-2c(Cl)ccc13 [AZD5991] + C1CN(CCC1(C(=O)N[C@@H](CCO)C2=CC=C(C=C2)Cl)N)C3=NC=NC4=C3C=CN4 [Capivasertib] (first compound max 1 µM, 7x7, partner max 3 µM)", "RESULT_NUMBER": 1}
